Values of IC50 reported for Epidermal growth factor receptor (Homo sapiens) appear below.
measurement name: IC50 (nM)

For orientation, consider the following solved cases.
[
  {
    "compound": "CN(C)C/C=C/C(=O)N1CCc2c(sc3ncnc(NCCO)c23)C1",
    "unit of measurement": "nM",
    "IC50": 4880
  },
  {
    "compound": "O=C(/C=C/CN1CCOCC1)N1CCc2c(sc3ncnc(NC(CO)c4ccccc4)c23)C1 (single isomer, unassigned)",
    "unit of measurement": "nM",
    "IC50": 21
  }
]

(a) CN(C)C/C=C/C(=O)N1CCc2c(sc3ncnc(NC(CO)Cc4ccccc4)c23)C1 (single isomer, unassigned)
(b) C=CC(=O)N1CCc2c(sc3ncnc(N[C@H](CC)c4ccccc4)c23)C1
[in] # query: argmin of IC50 over a and b Record your answer as the label of the chosen record.
[out] b

(1) C=CS(=O)(=O)N1CCc2c(sc3ncnc(N[C@H](CO)c4ccccc4)c23)C1
(2) C=CC(=O)N1CCc2c(sc3ncnc(N[C@@H](CO)c4ccccc4)c23)C1
(3) CCN(CC)C/C=C/C(=O)N1CCc2c(sc3ncnc(NC(CO)c4ccccc4)c23)C1 (single isomer, unassigned)
[in] Order field: IC50 | Direction: descending (largest first) The reply should contain the labels ordered as requested.
[out] 2, 1, 3
(2: 3060 nM, 1: 91 nM, 3: 9 nM)

(1) CN1CCN(C/C=C/C(=O)N2CCc3c(sc4ncnc(N[C@H](CO)c5ccccc5)c34)C2)CC1
(2) O=C(/C=C/c1ccccc1)N1CCc2c(sc3ncnc(N[C@H](CO)c4ccccc4)c23)C1
[in] Could you please tell me which of these two has the higher IC50: 1 or 2 ? Record your answer as the label of the chosen record.
[out] 2
